Item-by-item account of EC50
Target: UniProt:P43490
Experiment: Enzyme Assay and NMN Detection (NAMPT reaction, fluorescence detection of NMN)
Assay type: biochemical
Conditions: Table B-4; NAMPT activation, NMN formation

- MOL: "O=C(NCc1cn[nH]c1)Nc1ccc(S(=O)(=O)c2ccc(Cl)c(Cl)c2)cc1"
  EC50: "5000 to 20000 nM"

// moving on: another record for EC50
Data request: Respond only with EC50 recorded for O=C(NCc1cn[nH]c1)Nc1ccc(-c2n[nH]c3ccccc23)cc1
Data returned: 100 to 2000 nM

====

Item-by-item account of EC50
Biological target: NAMPT enzyme (Homo sapiens (Human), UniProt P43490)
Sequence (P43490 whole entry, species assumed): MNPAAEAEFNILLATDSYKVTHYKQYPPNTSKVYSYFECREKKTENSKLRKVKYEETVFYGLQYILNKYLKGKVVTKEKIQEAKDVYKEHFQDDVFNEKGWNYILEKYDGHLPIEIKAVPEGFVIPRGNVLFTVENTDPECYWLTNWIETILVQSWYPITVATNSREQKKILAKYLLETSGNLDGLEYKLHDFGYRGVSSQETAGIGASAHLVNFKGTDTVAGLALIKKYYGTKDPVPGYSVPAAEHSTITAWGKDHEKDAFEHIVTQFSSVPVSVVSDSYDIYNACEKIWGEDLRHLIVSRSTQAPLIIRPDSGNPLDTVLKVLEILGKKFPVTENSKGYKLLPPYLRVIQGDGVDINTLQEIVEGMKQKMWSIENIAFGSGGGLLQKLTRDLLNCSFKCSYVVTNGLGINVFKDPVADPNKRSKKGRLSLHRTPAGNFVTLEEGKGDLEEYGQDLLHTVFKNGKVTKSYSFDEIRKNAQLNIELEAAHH
Assay: Enzyme Assay and NMN Detection (NAMPT reaction, fluorescence detection of NMN)
Assay type: biochemical
Conditions: Table B-1; NAMPT activation, NMN formation

- MOL: "O=C(NCc1cncs1)Nc1ccc(S(=O)(=O)N2CCc3ccccc3C2)cc1"
  MEASURED ENDPOINT: "EC50"
  RESULT: "100 to 2000 nM"

Data request: Respond only with EC50 recorded for COc1cccc(S(=O)(=O)c2ccc(NC(=O)NCc3cn[nH]c3)cc2)c1
Data returned: < 100 nM
